Sourced from a collection of fitness landscapes (doi:10.1126/science.1257360)

B1: PhoQ; a variant is named by its letters at X, in order, P23837 (parent)
chain: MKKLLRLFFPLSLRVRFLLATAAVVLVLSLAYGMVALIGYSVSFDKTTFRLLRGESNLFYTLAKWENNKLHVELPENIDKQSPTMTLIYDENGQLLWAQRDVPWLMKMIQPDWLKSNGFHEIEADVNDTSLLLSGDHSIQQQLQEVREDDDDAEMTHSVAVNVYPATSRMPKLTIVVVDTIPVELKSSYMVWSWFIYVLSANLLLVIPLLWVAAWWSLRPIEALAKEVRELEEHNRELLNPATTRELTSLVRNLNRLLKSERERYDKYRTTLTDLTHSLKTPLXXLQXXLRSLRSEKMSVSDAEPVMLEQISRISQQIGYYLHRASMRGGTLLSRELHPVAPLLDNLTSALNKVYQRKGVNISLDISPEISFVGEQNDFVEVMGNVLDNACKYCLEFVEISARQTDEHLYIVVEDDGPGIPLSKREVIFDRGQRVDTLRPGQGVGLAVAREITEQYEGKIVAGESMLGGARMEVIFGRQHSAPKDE

Variants of: B1
EXPERIMENT DESCRIPTION: enrichment ratio after two sorts for PhoP signalling (ratio (wild type AVST 3.29)); higher = more functional
CONDITION CONTEXT: with PhoP (E. coli)
In all, about 140,000 sequences were measured (“enrichment ratio after two sorts for PhoP signalling”: median about 0, highest 2% from about 11 on). Only a selection was taken, and the highest values are over-represented in it overall.

- SEQUENCE CHANGE: "FFHE"
  enrichment ratio: "≤ 0.25"
- SEQUENCE CHANGE: "NHHT"
  enrichment ratio: "≤ 0.25"
- SEQUENCE CHANGE: "MTML"
  enrichment ratio: 4.85
- SEQUENCE CHANGE: "DEEV"
  enrichment ratio: "≤ 0.25"
- SEQUENCE CHANGE: "GGEV"
  enrichment ratio: "≤ 0.25"
- SEQUENCE CHANGE: "GGMS"
  enrichment ratio: 1.56
- SEQUENCE CHANGE: "RRQK"
  enrichment ratio: "≤ 0.25"
- SEQUENCE CHANGE: "YAWN"
  enrichment ratio: "≤ 0.25"
- SEQUENCE CHANGE: "ATPL"
  enrichment ratio: 5.31
- SEQUENCE CHANGE: "QQPV"
  enrichment ratio: "≤ 0.25"
- SEQUENCE CHANGE: "ATYD"
  enrichment ratio: "≤ 0.25"
- SEQUENCE CHANGE: "RAAP"
  enrichment ratio: "≤ 0.25"
- SEQUENCE CHANGE: "LYEH"
  enrichment ratio: "≤ 0.25"
- SEQUENCE CHANGE: "SLAF"
  enrichment ratio: 8.18
- SEQUENCE CHANGE: "NGMG"
  enrichment ratio: "≤ 0.25"
- SEQUENCE CHANGE: "MIWL"
  enrichment ratio: 3.25
- SEQUENCE CHANGE: "MIML"
  enrichment ratio: 14
- SEQUENCE CHANGE: "MIRL"
  enrichment ratio: "≤ 0.25"
- SEQUENCE CHANGE: "HNDG"
  enrichment ratio: "≤ 0.25"
- SEQUENCE CHANGE: "ATGD"
  enrichment ratio: "≤ 0.25"
